For each record, write down the corresponding Cell viability (% viable).
# Tested on: Huh-7.5 cells
# test.summary: Cell viability assay ([…]-GLO)
# Type: cell-based, human
# condition: 10 μM compound, triplicate, average ± SD
Express your answer in %, writing the number without its unit.

# input Any idea what its Cell viability (% viable) is? The compound is Cc1ccc2nc(-c3ccc4nc(-c5ccc(NC(=O)c6ccccc6C(F)(F)F)cc5)sc4c3)sc2c1S(=O)(=O)O [Compound 19]
# output 112

# input Any idea what its Cell viability (% viable) is? The compound is Cc1ccc2nc(-c3ccc4nc(-c5ccc(NC(=O)c6ccc(C(F)(F)F)cc6)cc5)sc4c3)sc2c1S(=O)(=O)O [Compound 12]
# output 90

# input Any idea what its Cell viability (% viable) is? The compound is Cc1ccc2nc(-c3ccc4nc(-c5ccc(NC(=O)c6ccc(F)cc6)cc5)sc4c3)sc2c1S(=O)(=O)O.N [Compound 7]
# output 94
